Recorded values, source the Human Domainome abundance scans (Beltran et al. 2025).

B1: Far upstream element-binding protein 2, residues 142 to 214; numbered along this chain, Q92945 (parent)
chain: RTSMTEEYRVPDGMVGLIIGRGGEQINKIQQDSGCKVQISPDSGGLPERSVSLTGAPESVQKAKMMLDDIVSR

Variants of: B1
Assay: abundance fitness (aPCA) (normalised: wild type 0, dead -1); higher = more abundant; growth selection in yeast, the domain comes from the species named
Details: Homo sapiens
abundance fitness of -0.2 or higher: YES. Under -0.2: NO.

- L53D: NO
- Q25F: YES
- S40Q: YES
- R49Q: YES
- K62G: NO
- V37D: NO
- V71G: NO
- Q38E: YES
- K36M: YES
- M65D: YES
- V60Y: NO
- G20M: NO
- I39D: NO
- E24P: NO
- G45T: YES
